Data provenance: patent US11572373B2

- Assay target: albumin (Homo sapiens, UniProt P02768)
- Construct: tissue Zen-Bio; host or cells: pooled human whole blood (K2EDTA, 36 donors) and plasma prepared from it
- Sequence (P02768 25-609): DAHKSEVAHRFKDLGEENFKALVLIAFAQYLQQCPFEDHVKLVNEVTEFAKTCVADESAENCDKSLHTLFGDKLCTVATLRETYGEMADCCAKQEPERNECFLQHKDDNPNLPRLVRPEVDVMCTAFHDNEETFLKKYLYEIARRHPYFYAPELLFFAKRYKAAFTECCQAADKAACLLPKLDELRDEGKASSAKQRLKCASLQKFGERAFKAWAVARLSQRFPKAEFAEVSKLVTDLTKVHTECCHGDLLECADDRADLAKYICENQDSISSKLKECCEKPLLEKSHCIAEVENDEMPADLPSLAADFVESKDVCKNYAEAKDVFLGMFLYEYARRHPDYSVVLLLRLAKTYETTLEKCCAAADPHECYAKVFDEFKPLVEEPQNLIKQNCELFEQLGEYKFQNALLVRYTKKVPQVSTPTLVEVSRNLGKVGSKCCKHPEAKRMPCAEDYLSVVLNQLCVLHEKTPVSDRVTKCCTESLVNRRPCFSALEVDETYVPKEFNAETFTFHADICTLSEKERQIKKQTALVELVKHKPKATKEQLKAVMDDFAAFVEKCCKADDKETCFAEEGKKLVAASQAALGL
- Protocol summary: in vitro
- Format: in vitro ADME
- Measurement setup: plasma, pooled human plasma, 15 s, 37° C., 12.0 μM, read-out: % bound (converted)
Give measured fraction unbound for each item. Keep answers brief.
Answers are plain numbers.

| Smiles representation | fraction unbound |
| --- | --- |
| COc1cc2cc(c1Cl)N(C)C(=O)C[C@H](OC(=O)COc1cccc(/C(C)=N/NC(=O)c3ccc(NC(=O)CCCCCN4C(=O)C=CC4=O)cc3S(=O)(=O)O)c1)[C@]1(C)O[C@H]1[C@H](C)[C@@H]1C[C@@](O)(NC(=O)O1)[C@H](OC)/C=C/C=C(\C)C2 | 0.08 |

From here, focus on the item given below.
Lookup: fraction unbound / albumin (Homo sapiens, UniProt P02768) / COc1cc2cc(c1Cl)N(C)C(=O)C[C@H](OC(=O)Cc1ccc(/C(C)=N/NC(=O)c3ccc(NC(=O)CCCCCN4C(=O)C=CC4=O)cc3S(=O)(=O)O)cc1F)[C@]1(C)O[C@H]1[C@H](C)[C@@H]1C[C@@](O)(NC(=O)O1)[C@H](OC)/C=C/C=C(\C)C2 0.036
